Assay: Solubility of secondary probes in labeling buffer
Format: physicochemical
Settings: 0.2 M NH4Ac, pH 5.5, 25 °C; heated 95 °C 5 min, 18-h static incubation, centrifugation, UV 260 nm of supernatant; highest concentration with at least 95% still soluble; duplicates
Exercise: state measured maximum soluble concentration for each of the substances provided.
Numbers only, in µM.

The cases that follow already have their maximum soluble concentration on record.
{"SUBSTANCE": "DOTA-AEEA-SS-atcaacaccagg-EEY-NH2 [HP17, 12-mer secondary PNA probe with DOTA]", "maximum soluble concentration / µM": 6}
{"SUBSTANCE": "DOTA-AEEA-SS-atcatcaacaccagg-EEY-NH2 [HP18, 15-mer secondary PNA probe with DOTA]", "maximum soluble concentration / µM": 3}
{"SUBSTANCE": "DOTA-AEEA-SS-aacaccagg-EEY-NH2 [HP16, 9-mer secondary PNA probe with DOTA]", "maximum soluble concentration / µM": 26}

Continue with the substance presented below.
query: Form field: reported maximum soluble concentration of DOTA-AEEA-SS-acaccagg-EEY-NH2 [HP20, 8-mer secondary PNA probe with DOTA]
result: 370
